Assign IC50 to each entry below.
Tested on: SK-MEL-2
Assay: Cytotoxicity against human SK-MEL-2 cells by sulforhodamine B assay
Type: functional, cell-based

For the compound shown here, "COc1ccc(C[C@@H](CO)Oc2ccc(CCCO)cc2OC)cc1OC" , give the reported IC50.
> 10 µM

Which IC50 is listed for "COc1ccc([C@H]2O[C@@H](c3ccc(OC)c(OC)c3)[C@H](C)[C@H]2C)cc1OC" ?
> 10 µM

Please look up its IC50: "COc1cc(C[C@H](CO)Oc2ccc(CCCO)cc2OC)ccc1O"
> 10 µM

Quick one: IC50 of "COc1ccc([C@H]2O[C@H](c3cc(OC)c(OC)c(OC)c3)[C@@H](C)[C@H]2C)cc1OC" ?
4.53 µM

Query: IC50; subject: "COc1cc([C@H](O)[C@H](CO)Oc2ccc(CCCO)cc2OC)ccc1O"
> 10 µM

Which measured IC50 value corresponds to "COc1ccc([C@H]2O[C@H](c3ccc(OC)c(OC)c3)[C@@H](C)[C@H]2C)cc1OC" ?
> 10 µM
